test: Paraffin wax solubility test; type: physicochemical; conditions: 2.0 g paraffin wax in 98 g solvent, 25 °C, stirring at 350 rpm
parameter: Dissolution Time (min)

Here are 3 compounds together with their reported answers.
[
  {
    "compound": "CCCCCCCCCCCC(=O)OCC(CC)CCCC (centres unmarked) [2-ethylhexyl laurate]",
    "measurement unit": "min",
    "Dissolution Time": 930
  },
  {
    "compound": "CCCCCCCCCCCC(=O)OC(C)C [isopropyl laurate]",
    "measurement unit": "min",
    "Dissolution Time": 102
  },
  {
    "compound": "CCCCCCCCCCCC(=O)OCC(C)C [isobutyl laurate]",
    "measurement unit": "min",
    "Dissolution Time": 340
  }
]

I: CCCCCCCCCCCC(=O)OCCC(C)C [isoamyl laurate]
II: CCCCCCCCCCCC(=O)OC [methyl laurate]
Request: Hi team, can someone confirm which has the larger Dissolution Time: I or II ? Thanks. The response must carry the label of the picked entry.
Result: I
